# test.method.notes: Pharmacokinetics after 21 days dosing in the efficacy study (plasma, tumor and brain concentrations; plasma AUC at steady state), Example 14
# Assay type: in vivo, female BALB/c nude mice
# condition.summary: mouse, plasma, po; 1.5 mg/kg p.o. BID × 21 days; read-out: Plasma AUC at steady state (Day 21), Average
recorded.endpoint: AUC (ng·h/mL)
Output spec: scalar in ng·h/mL, unitless text.

Problem: Consider the compound "CCN(C)S(=O)(=O)Nc1ccc(F)c(Oc2ccc3ncn([C@H]4COC5(CCN(C6CC7(C6)CN(c6cc8c(cc6F)c(N6CCC(=O)NC6=O)nn8C)C7)CC5)C4)c(=O)c3c2)c1C#N" . State its measured AUC.
Result: 37400

###

# test.method.notes: Example 8 pharmacokinetics assay for PKPD study (plasma, tumor, liver)
# Type: in vivo, BALB/c nude mice
# condition.summary: mouse, tumor, po, 35 mg/kg, p.o., single dose; 6 h; read-out: Concentration in Tumor (mean ± SEM)
recorded.endpoint: concentration at 6 h (ng/g)
Output spec: scalar in ng/g, unitless text.

Problem: Consider the compound COC(=O)N[C@@H](C)CNc1nccc(-c2cn(C(C)C)nc2-c2cc(Cl)cc(NS(C)(=O)=O)c2F)n1 [Encorafenib, encorafenib, reference compound] . State its measured concentration at 6 h.
Result: 139

###

# test.method.notes: Pharmacokinetics in female BALB/c nude mice bearing A375 xenografts, 1 day dosing (PK and PD study): plasma, tumor and brain concentrations, AUC
# Format: in vivo
# condition.summary: mouse, tumor, po, 6 mg/kg, 6 mg/kg p.o. QD × 1 day; 10 h; read-out: Mean Concentration in Tumor ± SEM
recorded.endpoint: concentration at 10 h (ng/g)
Output spec: scalar in ng/g, unitless text.

Problem: Consider the compound CCN(C)S(=O)(=O)Nc1ccc(F)c(Oc2ccc3ncn([C@H]4COC5(CCN(C6CC7(C6)CN(c6cc8c(cc6F)c(N6CCC(=O)NC6=O)nn8C)C7)CC5)C4)c(=O)c3c2)c1C#N [Compound 26] . State its measured concentration at 10 h.
Result: 1320

###

# test.method.notes: Pharmacokinetics in female BALB/c nude mice bearing A375 xenografts, 1 day dosing (PK and PD study): plasma, tumor and brain concentrations, AUC
# Format: in vivo
# condition.summary: mouse, plasma, po, 10 mg/kg, 10 mg/kg p.o. BID × 1 day; post 2nd dose; 1 h; read-out: Mean Concentration in Plasma ± SEM
recorded.endpoint: concentration at 1 h (ng/mL)
Output spec: scalar in ng/mL, unitless text.

Problem: Consider the molecule "CCN(C)S(=O)(=O)Nc1ccc(F)c(Oc2ccc3ncn([C@H]4COC5(CCN(C6CC7(C6)CN(c6cc8c(cc6F)c(N6CCC(=O)NC6=O)nn8C)C7)CC5)C4)c(=O)c3c2)c1C#N" . State its measured concentration at 1 h.
Result: 27000

###

# measurement.target: BRAF V600E (Homo sapiens, UniProt P15056+Q96SW2, V600E)
# Construct: knock-in of the HiBiT tag to the endogenous BRAF V600E locus; host or cells: A375.10 (A375 clonal line, CRISPR HiBiT knock-in at the endogenous BRAF V600E locus)
# Sequence (P15056 whole entry V600E): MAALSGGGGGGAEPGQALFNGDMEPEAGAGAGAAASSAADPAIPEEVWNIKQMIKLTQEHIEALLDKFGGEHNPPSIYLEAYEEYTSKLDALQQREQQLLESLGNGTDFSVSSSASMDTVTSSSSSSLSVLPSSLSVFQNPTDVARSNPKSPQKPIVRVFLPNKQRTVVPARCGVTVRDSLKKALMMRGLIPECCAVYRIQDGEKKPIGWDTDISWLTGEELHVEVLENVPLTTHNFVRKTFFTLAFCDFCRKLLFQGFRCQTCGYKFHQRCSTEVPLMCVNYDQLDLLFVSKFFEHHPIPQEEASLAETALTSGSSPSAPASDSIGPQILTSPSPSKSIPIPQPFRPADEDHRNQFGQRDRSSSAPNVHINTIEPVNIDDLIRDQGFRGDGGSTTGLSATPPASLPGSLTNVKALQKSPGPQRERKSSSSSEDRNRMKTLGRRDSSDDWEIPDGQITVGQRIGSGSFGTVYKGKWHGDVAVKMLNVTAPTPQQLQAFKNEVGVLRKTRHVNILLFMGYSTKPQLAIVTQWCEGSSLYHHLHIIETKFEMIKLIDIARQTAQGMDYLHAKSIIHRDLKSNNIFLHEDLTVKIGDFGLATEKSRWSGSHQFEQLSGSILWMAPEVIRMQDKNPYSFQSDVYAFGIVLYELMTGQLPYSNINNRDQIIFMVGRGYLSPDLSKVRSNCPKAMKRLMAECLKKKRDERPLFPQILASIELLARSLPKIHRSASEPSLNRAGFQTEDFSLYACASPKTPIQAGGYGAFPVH
# Sequence (Q96SW2 whole entry): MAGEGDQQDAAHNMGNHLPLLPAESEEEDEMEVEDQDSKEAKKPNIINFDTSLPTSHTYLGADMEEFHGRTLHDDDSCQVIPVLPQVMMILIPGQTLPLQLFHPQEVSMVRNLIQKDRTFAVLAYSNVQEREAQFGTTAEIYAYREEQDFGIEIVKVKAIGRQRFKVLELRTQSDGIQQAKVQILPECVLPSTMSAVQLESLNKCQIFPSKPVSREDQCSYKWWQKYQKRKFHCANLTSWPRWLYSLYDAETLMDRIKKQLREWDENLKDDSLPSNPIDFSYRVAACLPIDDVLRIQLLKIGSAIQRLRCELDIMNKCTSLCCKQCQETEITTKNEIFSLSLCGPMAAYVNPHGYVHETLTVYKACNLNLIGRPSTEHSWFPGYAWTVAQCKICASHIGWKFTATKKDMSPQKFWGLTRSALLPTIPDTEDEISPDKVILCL
# Sequence (Q16531 whole entry partner): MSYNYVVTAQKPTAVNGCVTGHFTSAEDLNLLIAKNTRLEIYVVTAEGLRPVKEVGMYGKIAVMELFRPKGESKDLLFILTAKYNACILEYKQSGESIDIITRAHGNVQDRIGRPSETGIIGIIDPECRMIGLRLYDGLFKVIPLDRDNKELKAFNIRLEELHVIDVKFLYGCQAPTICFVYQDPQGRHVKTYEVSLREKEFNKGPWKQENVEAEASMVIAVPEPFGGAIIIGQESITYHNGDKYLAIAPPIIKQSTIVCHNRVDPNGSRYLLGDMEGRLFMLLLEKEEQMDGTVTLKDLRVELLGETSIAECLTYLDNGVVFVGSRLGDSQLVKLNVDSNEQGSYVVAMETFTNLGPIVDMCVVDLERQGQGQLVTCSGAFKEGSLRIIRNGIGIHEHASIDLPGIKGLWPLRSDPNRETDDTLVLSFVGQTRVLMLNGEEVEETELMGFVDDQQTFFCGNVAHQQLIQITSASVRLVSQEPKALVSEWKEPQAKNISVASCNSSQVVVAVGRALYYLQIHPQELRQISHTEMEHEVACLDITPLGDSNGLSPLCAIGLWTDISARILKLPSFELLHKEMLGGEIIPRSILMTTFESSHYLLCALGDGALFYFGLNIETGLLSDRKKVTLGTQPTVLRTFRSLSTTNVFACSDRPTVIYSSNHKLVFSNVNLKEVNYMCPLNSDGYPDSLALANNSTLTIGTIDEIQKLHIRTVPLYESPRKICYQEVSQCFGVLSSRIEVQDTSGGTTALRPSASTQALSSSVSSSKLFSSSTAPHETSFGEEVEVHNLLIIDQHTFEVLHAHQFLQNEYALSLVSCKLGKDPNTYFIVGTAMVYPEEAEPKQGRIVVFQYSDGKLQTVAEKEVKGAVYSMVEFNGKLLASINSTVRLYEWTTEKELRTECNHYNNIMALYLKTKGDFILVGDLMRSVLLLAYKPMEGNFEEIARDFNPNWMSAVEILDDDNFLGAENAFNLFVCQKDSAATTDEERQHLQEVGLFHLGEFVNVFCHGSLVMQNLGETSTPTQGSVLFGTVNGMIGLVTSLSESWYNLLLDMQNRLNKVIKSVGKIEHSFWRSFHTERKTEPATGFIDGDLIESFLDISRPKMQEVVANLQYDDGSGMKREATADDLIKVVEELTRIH
# test.method.notes: BRAF V600E HiBiT Degradation Assay
# Type: cell-based
# condition.summary: read-out: HiBiT-Degradation A375.10 BRAF 2 hours DC50; A375.10 cells, BRAF V600E, 2 hours
Readings of DC50 for the listed compounds

Sample answers from the record:
compound	meas.value
CO[C@H]1CCN(S(=O)(=O)Nc2ccc(F)c(Oc3ccc4ncc(C5CC6(CCN(C7CCC(c8cc9c(cc8F)c(N8CCC(=O)NC8=O)nn9C)CC7)CC6)C5)nc4c3)c2C#N)C1 (single isomer, unassigned) [Compound 276]	< 1000 nM
COC1CN(S(=O)(=O)Nc2ccc(F)c(Oc3ccc4ncn(C5CC6(CCN(C7CC8(C7)CN(c7cc9c(cc7F)c(N7CCC(=O)NC7=O)nn9C)C8)CC6)C5)c(=O)c4c3)c2C#N)C1 (stereo not drawn)	< 1000 nM

Problem: Consider the compound CCN(C)S(=O)(=O)Nc1ccc(F)c(Oc2ccc3ncn([C@H]4COC5(CCN(C6CC7(C6)CN(c6ccc(NC8CCC(=O)NC8=O)cc6F)C7)CC5)C4)c(=O)c3c2)c1F (stereo partly drawn) . State its measured DC50.
Result: > 10000 nM

###

Readings of DC50 for the listed compounds
# measurement.target: BRAF V600E (Homo sapiens, UniProt P15056+Q96SW2, V600E)
# Construct: knock-in of the HiBiT tag to the endogenous BRAF V600E locus; host or cells: A375.10 (A375 clonal line, CRISPR HiBiT knock-in at the endogenous BRAF V600E locus)
# test.method.notes: BRAF V600E HiBiT Degradation Assay
# Type: cell-based
# condition.summary: A375.10 cells, BRAF V600E, 2 hours; read-out: HiBiT-Degradation A375.10 BRAF 2 hours DC50

Sample answers from the record:
compound	DC50
CN(CCO)S(=O)(=O)Nc1ccc(F)c(Oc2ccc3ncc(C4CC5(CCN(C6CCC(c7cc8c(cc7F)c(N7CCC(=O)NC7=O)nn8C)CC6)CC5)C4)nc3c2)c1C#N (single isomer, unassigned) [Compound 294]	< 1000 nM
CCN(C)S(=O)(=O)Nc1ccc(F)c(Oc2ccc3ncn([C@H]4COC5(CCN(C6C7COCC6CC(c6ccc(NC8CCC(=O)NC8=O)cc6F)C7)CC5)C4)c(=O)c3c2)c1C#N (stereo partly drawn)	> 10000 nM
Cn1nc(N2CCC(=O)NC2=O)c2cc(F)c(N3CC4(CC(N5CCC6(CC5)CC(n5cnc7ccc(Oc8c(F)ccc(NS(=O)(=O)C9CCCC9)c8C#N)cc7c5=O)C6)C4)C3)cc21	< 1000 nM
CN(CCO)S(=O)(=O)Nc1ccc(F)c(Oc2ccc3ncc(C4CC5(C4)CN(C4CCC(c6cc7c(cc6F)c(N6CCC(=O)NC6=O)nn7C)CC4)C5)nc3c2)c1C#N (single isomer, unassigned) [Compound 322]	1000 to 10000 nM
CCN(C)S(=O)(=O)Nc1ccc(F)c(Oc2ccc3ncc([C@H]4COC5(CCN(C6CC7(C6)CN(c6cc8c(cc6F)c(N6CCC(=O)NC6=O)nn8C)C7)CC5)C4)nc3c2)c1C#N	1000 to 10000 nM
CCN(C)S(=O)(=O)Nc1ccc(F)c(Oc2ccc3ncn(C4CC5(CCN(C6CC7(CCN(c8cc9c(cc8F)c(N8CCC(=O)NC8=O)nn9C)CC7)C6)C5)C4)c(=O)c3c2)c1C#N (stereo not drawn)	< 1000 nM
CCN(C)S(=O)(=O)Nc1ccc(F)c(C(=O)c2ccc3ncn(C4CC5(CCN(C6CCC(c7cc8c(cc7F)c(N7CCC(=O)NC7=O)nn8C)CC6)CC5)C4)c(=O)c3c2)c1F (single isomer, unassigned) [Compound 183]	< 1000 nM
CCN(C)S(=O)(=O)Nc1ccc(F)c(Oc2ccc3ncn(C4CC5(CCN(C6CCC(c7cc8c(cc7F)c(N7CCC(=O)NC7=O)nn8C)CC6)C5)C4)c(=O)c3c2)c1C#N (single isomer, unassigned) [Compound 206]	< 1000 nM
CO[C@@H]1CCN(S(=O)(=O)Nc2ccc(F)c(Oc3ccc4ncn(C5CC6(CCN(C7CCC(c8cc9c(cc8F)c(N8CCC(=O)NC8=O)nn9C)CC7)CC6)C5)c(=O)c4c3)c2C#N)C1 (single isomer, unassigned) [Compound 102]	< 1000 nM
Cn1nc(N2CCC(=O)NC2=O)c2cc(F)c(N3CC4(CC(N5CCC6(CC5)C[C@@H](n5cnc7ccc(Oc8c(F)ccc(NS(=O)(=O)C9CCOCC9)c8C#N)cc7c5=O)CO6)C4)C3)cc21	> 10000 nM

Problem: Consider the compound CCN(C)S(=O)(=O)Nc1ccc(F)c(Oc2ccc3ncn(C4CC5(CCN(C6CCC7(CC6)CN(c6cc8c(cc6F)c(N6CCC(=O)NC6=O)nn8C)C7)CC5)C4)c(=O)c3c2)c1C#N (stereo not drawn) . State its measured DC50.
Result: > 10000 nM

Problem: Consider the compound CCN(C)S(=O)(=O)Nc1ccc(F)c(Oc2ccc3ncc(CCC4CCN(C5CCC(c6ccc(NC7CCC(=O)NC7=O)cc6F)CC5)CC4)nc3c2)c1C#N (single isomer, unassigned) [Compound 132] . State its measured DC50.
Result: < 1000 nM

Problem: Consider the compound CCN(C)S(=O)(=O)Nc1ccc(F)c(Oc2ccc3ncn([C@@H]4C[C@@H]5CN(C6CCC(c7cc8c(cc7F)c(N7CCC(=O)NC7=O)nn8C)CC6)C[C@@H]5C4)c(=O)c3c2)c1C#N (single isomer, unassigned) [Compound 16] . State its measured DC50.
Result: < 1000 nM

Problem: Consider the compound CCN(C)S(=O)(=O)Nc1ccc(F)c(Oc2ccc3ncn(C4CC5(C4)CN(C4CCC(c6cc7c(cc6F)c(N6CCC(=O)NC6=O)nn7C)CC4F)C5)c(=O)c3c2)c1C#N (single isomer, unassigned) [Compound 300] . State its measured DC50.
Result: < 1000 nM

Problem: Consider the compound CCN(C)S(=O)(=O)Nc1ccc(F)c(Oc2ccc3ncn([C@H]4COC5(CCN(C6CCC(c7cc8c(cc7F)c(N7CCC(=O)NC7=O)nn8C)CC6)CC5)C4)c(=O)c3c2)c1F (single isomer, unassigned) . State its measured DC50.
Result: < 1000 nM

Problem: Consider the compound CCN(C)S(=O)(=O)Nc1ccc(F)c(Oc2ccc3ncn([C@H]4C[C@@H]5CN(C6CCC(c7cc8c(cc7F)c(N7CCC(=O)NC7=O)nn8C)CC6)C[C@@H]5C4)c(=O)c3c2)c1C#N (single isomer, unassigned) . State its measured DC50.
Result: < 1000 nM

Problem: Consider the compound CCN(C)S(=O)(=O)Nc1ccc(F)c(Oc2ccc3ncn(C4CCC5(CC4)CCN(C4CCC(c6cc7c(cc6F)c(N6CCC(=O)NC6=O)nn7C)CC4)CC5)c(=O)c3c2)c1C#N (single isomer, unassigned) [Compound 13] . State its measured DC50.
Result: < 1000 nM

Problem: Consider the compound CCN(C)S(=O)(=O)Nc1ccc(F)c(Oc2ccc3ncn(C4CC5(CCN(C6CCC(c7cc8c(cc7F)c(N7CCC(=O)NC7=O)nn8C)CC6F)CC5)C4)c(=O)c3c2)c1F (single isomer, unassigned) [Compound 185] . State its measured DC50.
Result: > 10000 nM
